# PROTOCOL_DESCRIPTION: Photometric activity determination of 7β-HSDH and mutants (decrease in absorbance at 340 nm, DHCA reduction with NADPH)
# Format: biochemical
# MEASUREMENT_CONTEXT: Table 4, variants modified at position 64; 10 mM DHCA, NADPH, KPi pH 8.0
Recorded Volumetric activity for the following molecules
OBSERVABLE: Volumetric activity

{"columns": ["MOLECULE", "RESULT"],
 "data": [
  ["7β-HSDH [R64Y]: 7β-HSDH mutant, R in position 64 replaced by Y (protein, UniProt A4ECA9 1-263, looked up, variant R64Y) 7beta-hydroxysteroid …: MNLREKYGEWGLILGATEGVGKAFCEKIAAGGMNVVMVGRREEKLNVLAGEIRETYGVETKVVYADFSQPGAAETVFAATEGLDMGFMSYVACLHSFGKIQDTPWEKHEAMINVNVVTFLKCFHHYMRIFAAQDRGAVINVSSMTGISSSPWNGQYGAGKAFILKMTEAVACECEGTGVDVEVITLGTTLTPSLLSNLPGGPQGEAVMKIALTPEECVDEAFEKLGKELSVIAGQRNKDSVHDWKANHTEDEYIRYMGSFYRD", "220.3 U/ml"],
  ["7β-HSDH [R64I]: 7β-HSDH mutant, R in position 64 replaced by I (protein, UniProt A4ECA9 1-263, looked up, variant R64I) 7beta-hydroxysteroid …: MNLREKYGEWGLILGATEGVGKAFCEKIAAGGMNVVMVGRREEKLNVLAGEIRETYGVETKVVIADFSQPGAAETVFAATEGLDMGFMSYVACLHSFGKIQDTPWEKHEAMINVNVVTFLKCFHHYMRIFAAQDRGAVINVSSMTGISSSPWNGQYGAGKAFILKMTEAVACECEGTGVDVEVITLGTTLTPSLLSNLPGGPQGEAVMKIALTPEECVDEAFEKLGKELSVIAGQRNKDSVHDWKANHTEDEYIRYMGSFYRD", "171 U/ml"]
]}

Values compiled from patent US10358672B2.
